Listed here: items and their measured logP.

- compound structure string: "S=C(Nc1ccccc1)c1ccccc1"
  logP: 3.03
- compound structure string: "OCCOCCN1CCN(CCCN2c3ccccc3Sc3ccc(C(F)(F)F)cc32)CC1"
  logP: 4.49
- compound structure string: "CC(=O)Nc1ccc(C(F)(F)F)cc1"
  logP: 2.52

* * *

- molecule: "NC(=O)N=[N+]([O-])c1ccccc1"
  logP: 0.58
- molecule: "CCC1OC(=O)C(C)C(OC2CC(C)(OC)C(O)C(C)O2)C(C)C(OC2OC(C)CC(N(C)C)C2O)C(C)(O)CC(C)C(=O)C(C)C(OC(C)=O)C1C (stereo not drawn)"
  logP: 3.32
- molecule: "CCCCOC(=O)c1cccc(C(=O)OCCCC)c1"
  logP: 4.26
